- measured on: glutathione-S-transferase (GST) tagged LXRbeta LBD (ligand binding domain) (Homo sapiens, UniProt P55055)
- Construct: purchased Invitrogen pv4658
- Sequence (P55055 222-460 limits assumed): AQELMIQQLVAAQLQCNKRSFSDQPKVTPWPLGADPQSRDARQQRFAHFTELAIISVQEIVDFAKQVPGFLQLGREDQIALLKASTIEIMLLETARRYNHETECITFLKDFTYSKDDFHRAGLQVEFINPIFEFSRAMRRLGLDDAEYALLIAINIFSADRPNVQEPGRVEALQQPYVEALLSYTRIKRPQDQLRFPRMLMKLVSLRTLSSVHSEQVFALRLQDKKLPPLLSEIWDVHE
- test: LanthaScreen TR-FRET Liver X Receptor Coactivator Assay, LXR beta
- Format: biochemical
- assay setup: read-out: LXR beta actiivty at max dose, efficacy (% Emax) in relation to reference dual agonist T0901317
- Method: While running the LanthaScreen™ TR-FRET Liver X Receptor Coactivator Assay, LXR alpha-LBD or LXR beta-LBD was added to ligand test compounds followed by addition of a mixture of a fluorescein-labelled coactivator peptide and terbium-conjugated anti-GST antibody. After an incubation period at room temperature, TR-FRET (time-resolved fluorescence resonance energy transfer) was measured using a filter-based instrument capable of TR-FRET, e.g. PerkinElmer Envision.
measured parameter: Emax (%)

Below: 4 compounds and their reported Emax.
# compound, Emax (%)
rows = [
    ("CCNC(=O)c1ccc(OCCCCC2CCN(C(=O)[C@](O)(c3ccccc3)C(F)(F)F)CC2)cc1Cl (single isomer, unassigned)", 76),
    ("CC1(C)CCN(C(=O)c2ccc(OCCCCC3CCN(C(=O)C(O)(c4ccccc4)C(F)(F)F)CC3)cc2Cl)C1 (single isomer, unassigned)", 27),
    ("CNC(=O)c1ccc(OC[C@@H](C)CCC2CCN(C(=O)[C@@](O)(c3cccc(OC)c3)C(F)(F)F)CC2)cc1Cl (single isomer, unassigned)", 53),
    ("COc1cccc(C(O)(C(=O)N2CCC(C(F)(F)CCCOc3ccc(C(=O)N(C)C)c(Cl)c3)CC2)C(F)(F)F)c1 (single isomer, unassigned)", 67),
]

[I] O=C(c1ccc(OCCCCC2CCN(C(=O)[C@](O)(c3ccccc3)C(F)(F)F)CC2)cc1Cl)N1CCC[C@H]1CO (single isomer, unassigned)
[II] COc1cccc(C(O)(C(=O)N2CCC(C(F)CCCOc3ccc(C(=O)N(C)C)c(Cl)c3)CC2)C(F)(F)F)c1 (single isomer, unassigned)
Query: Which one would you say has the larger Emax value: I , or II ? // output: label of the selected item
Response: II
(II: 75%, I: 48%)

###

- measured on: glutathione-S-transferase (GST) tagged LXRbeta LBD (ligand binding domain) (Homo sapiens, UniProt P55055)
- Construct: purchased Invitrogen pv4658
- test: LanthaScreen TR-FRET Liver X Receptor Coactivator Assay, LXR beta
- Format: biochemical
- assay setup: LXR beta IP, potency (Inflection Point), compound-induced co-activator recruitment, TR-FRET
measured parameter: EC50 (nM)

Below: 3 compounds and their reported EC50.
# compound, units label, EC50
rows = [
    ("CN(C)C(=O)c1ccc(OC2CC(CC3CCN(C(=O)[C@](O)(c4ccccc4)C(F)(F)F)CC3)C2)cc1Cl (single isomer, unassigned)", "nM", 92),
    ("CN(C)C(=O)c1ccc(OCCCCC2CCN(C(=O)C(O)(c3ccccn3)C(F)(F)F)CC2)nc1Cl (stereo not drawn)", "nM", 29),
    ("COc1cccc(C(O)(C(=O)N2CCC3(CCC3CCCOc3ccc(C(=O)N(C)C)c(Cl)c3)CC2)C(F)(F)F)c1 (single isomer, unassigned)", "nM", 66),
]

[1] CN(C)C(=O)c1ccc(OCC(F)CCC2CCN(C(=O)C(O)(c3ccccc3)C(F)(F)F)CC2)cc1Cl (single isomer, unassigned)
[2] CC(CCCOc1ccc(C(=O)N(C)C)c(Cl)c1)C1CCN(C(=O)C(O)(c2ccccc2)C(F)(F)F)CC1 (single isomer, unassigned) [Example 26-4]
[3] O=C(NC1CC1)c1ccc(OCCCCC2CCN(C(=O)[C@](O)(c3ccccc3)C(F)(F)F)CC2)cc1Cl (single isomer, unassigned)
Query: Sort ascending by EC50. API: response body holds the labels in the requested order.
Response: 3, 2, 1
